Reported Percent Control by item:
Tested on: PIK3CA(I800L)
Conditions: Compound Concentration (nM):1000;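 also: KINOMEscan scanMAX binding as percent activity remaining versus control; lower means stronger binding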
Reply numerically in %, unit not repeated.

Some molecules with recorded Percent Control:
Cl.O=S1CCN(Cc2ccc(-c3ccc4ncnc(Nc5ccc(OCc6ccccc6)c(F)c5)c4c3)o2)CC1 [GW576924A]; 100
NS(=O)(=O)c1ccc(N/N=C2\C(=O)Nc3ccc(Cl)cc32)cc1 [GW280670X]; 100

Reported Percent Control for COc1ccc2[nH]c3c4[nH]c5ccc(OC)cc5c4c4c(c3c2c1)C(=O)NC4=O [GW296115X] : what is it?
93

Reported Percent Control for NS(=O)(=O)c1ccc(N/N=C2\C(=O)Nc3ccc(C(=O)NCc4ccncc4)cc32)cc1 [GW300657X] : what is it?
85

Reported Percent Control for COc1cc2ncn(-c3cc(O[C@H](C)c4ccccc4Cl)c(C(N)=O)s3)c2cc1OC [GSK237701A] : what is it?
49

Reported Percent Control for C[C@@H](Oc1cc(-n2cnc3ccc(OC4CCN(C)CC4)cc32)sc1C(N)=O)c1ccccc1Cl [GSK579289A] : what is it?
78

* * *

Reported Percent Control by item:
Test system: NEK1
Settings: Compound Concentration (nM):1000
Reply numerically in %, unit not repeated.

Some compounds with recorded Percent Control:
NS(=O)(=O)c1ccc(Nc2ncc(-c3ccccc3)o2)cc1 [GW572399X]; 84
COc1cc(N2CCN(C(C)C)CC2)ccc1Nc1nc(Nc2ccc(F)cc2C(=O)NC[C@@H](O)CO)c2cc[nH]c2n1 [GSK1392956A]; 82
COc1cc(/C=N/Nc2ncnc3[nH]ncc23)ccc1O [GW578748X]; 70
COC(=O)Nc1nc2ccc(Oc3ccc(NC(=O)Nc4cc(C(F)(F)F)ccc4F)cc3)cc2s1.Cl [GW693917A]; 94
C/C(Nc1ccc(S(N)(=O)=O)cc1)=C1/C(=O)Nc2ccccc21 [GW335962X]; 75
NS(=O)(=O)c1ccc(N/N=C2\C(=O)Nc3ccc(Cl)cc32)cc1 [GW280670X]; 100
COc1ccc2[nH]c3c4[nH]c5ccc(OC)cc5c4c4c(c3c2c1)C(=O)NC4=O [GW296115X]; 100
COc1cccc(-n2ncc3c(N/N=C/c4ccncc4)ncnc32)c1 [GW784752X]; 84

Now, please, on to the next compound.
Reported Percent Control for CC(C)COC(=O)c1ccc2c(c1)/C(=C/Nc1ccc(S(N)(=O)=O)cc1)C(=O)N2 [GW416981X] : what is it?
94

* * *

Reported Percent Control by item:
Tested on: STK36
Settings: Compound Concentration (nM):1000
Reply numerically in %, unit not repeated.

NS(=O)(=O)c1ccc(Nc2ncc(-c3ccccc3)o2)cc1 [GW572399X]; 100
COc1ccc2cc(-c3c(-c4ccncc4)nc(-c4ccc(S(C)(=O)=O)cc4C)n3C)ccc2c1; 82

Now, please, on to the next compound.
Test system STK36; read-out Percent Control; what value for Cl.O=S1CCN(Cc2ccc(-c3ccc4ncnc(Nc5ccc(OCc6ccccc6)c(F)c5)c4c3)o2)CC1 [GW576924A] ?
100

* * *

Reported Percent Control by item:
System: TAK1
Construct: gene MAP3K7
Settings: Compound Concentration (nM):1000
State the value, then name its unit.

Reported Percent Control for COc1ccc2[nH]c3c4[nH]c5ccc(OC)cc5c4c4c(c3c2c1)C(=O)NC4=O [GW296115X] : what is it?
20%

Reported Percent Control for COc1cc(N2CCN(C(C)C)CC2)ccc1Nc1nc(Nc2ccc(F)cc2C(=O)NC[C@@H](O)CO)c2cc[nH]c2n1 [GSK1392956A] : what is it?
100%

Reported Percent Control for Cl.O=C(Nc1ccc(Oc2ccc3[nH]c(NC(=O)c4ccco4)nc3c2)cc1)Nc1cc(C(F)(F)F)ccc1F [GW683134A] : what is it?
9.1%

Reported Percent Control for `COc1cc(C)c(N(C)C(=O)CN(C)C)cc1Nc1nc(Nc2cccc(F)c2C(N)=O)c2cc[nH]c2n1` : what is it?
93%

Reported Percent Control for CCS(=O)(=O)c1ccc(OC)c(Nc2ncc(-c3cccc(F)c3)o2)c1 [GW621970X] : what is it?
100%

Reported Percent Control for COc1ccccc1-c1cc(/C=C2\C(=O)Nc3ncc(Br)cc32)cc(Br)c1O [GW442130X] : what is it?
81%

Reported Percent Control for Cl.O=S1CCN(Cc2ccc(-c3ccc4ncnc(Nc5ccc(OCc6ccccc6)c(F)c5)c4c3)o2)CC1 [GW576924A] : what is it?
100%
